Recorded koff for the following binders
- Subject of test: Feline_OSMR_hlgG1_Fc (feline)
- Sequence (chain, as listed by the source limits assumed, form in doubt): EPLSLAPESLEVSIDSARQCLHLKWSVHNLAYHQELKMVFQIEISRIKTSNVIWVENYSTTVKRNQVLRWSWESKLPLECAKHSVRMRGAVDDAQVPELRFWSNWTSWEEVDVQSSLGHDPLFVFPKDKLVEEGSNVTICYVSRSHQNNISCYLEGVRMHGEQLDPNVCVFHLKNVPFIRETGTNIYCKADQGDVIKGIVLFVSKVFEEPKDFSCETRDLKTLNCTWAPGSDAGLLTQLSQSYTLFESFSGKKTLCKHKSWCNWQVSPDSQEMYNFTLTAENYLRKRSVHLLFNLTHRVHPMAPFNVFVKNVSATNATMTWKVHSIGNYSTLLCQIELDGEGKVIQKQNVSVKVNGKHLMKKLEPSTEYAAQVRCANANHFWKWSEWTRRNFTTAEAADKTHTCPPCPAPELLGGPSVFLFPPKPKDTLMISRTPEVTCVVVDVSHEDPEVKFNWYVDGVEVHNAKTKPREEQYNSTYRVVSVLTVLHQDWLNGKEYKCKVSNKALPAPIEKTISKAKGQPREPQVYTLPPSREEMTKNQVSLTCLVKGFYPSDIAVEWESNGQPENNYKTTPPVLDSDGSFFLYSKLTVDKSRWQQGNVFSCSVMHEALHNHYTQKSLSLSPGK
- Test protocol: SPR Biacore, OSMR on chip
Value expressed in s⁻¹; do not type the unit.

These solved cases illustrate the format of a correct answer.
Binder | Scale unit | koff
mouse: canine 09E09 chimera (antibody, V domains shown) VH: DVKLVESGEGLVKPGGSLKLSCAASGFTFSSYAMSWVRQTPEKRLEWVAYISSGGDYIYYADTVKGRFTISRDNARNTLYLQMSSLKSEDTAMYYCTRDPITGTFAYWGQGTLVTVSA VL: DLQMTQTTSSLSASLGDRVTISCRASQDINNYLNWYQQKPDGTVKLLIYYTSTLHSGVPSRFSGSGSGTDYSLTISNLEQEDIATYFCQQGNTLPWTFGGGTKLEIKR | s⁻¹ | 0.000697
mouse: canine 19F07 chimera (antibody, V domains shown) VH: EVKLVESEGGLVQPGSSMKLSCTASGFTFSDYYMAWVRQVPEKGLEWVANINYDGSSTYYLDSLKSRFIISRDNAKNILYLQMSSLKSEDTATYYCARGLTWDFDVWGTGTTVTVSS VL: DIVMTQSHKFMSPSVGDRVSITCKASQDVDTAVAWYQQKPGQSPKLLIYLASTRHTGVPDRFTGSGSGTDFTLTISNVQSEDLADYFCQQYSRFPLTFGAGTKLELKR | s⁻¹ | 0.002
mouse: canine 02D09 chimera (antibody, V domains shown) VH: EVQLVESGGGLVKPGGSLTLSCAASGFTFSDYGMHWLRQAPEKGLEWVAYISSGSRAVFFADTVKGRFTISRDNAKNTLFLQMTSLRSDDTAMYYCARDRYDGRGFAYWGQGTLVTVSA VL: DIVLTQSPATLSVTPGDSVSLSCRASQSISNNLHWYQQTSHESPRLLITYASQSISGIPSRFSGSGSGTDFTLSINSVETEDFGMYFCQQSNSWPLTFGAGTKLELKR | s⁻¹ | 0.000942

Now for the binder whose koff we want.
Lookup: Read off the recorded koff for mouse: canine 10F07 chimera (antibody, V domains shown) VH: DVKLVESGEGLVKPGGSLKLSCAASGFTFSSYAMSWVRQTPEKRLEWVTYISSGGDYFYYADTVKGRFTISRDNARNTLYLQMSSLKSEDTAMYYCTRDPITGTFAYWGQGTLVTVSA VL: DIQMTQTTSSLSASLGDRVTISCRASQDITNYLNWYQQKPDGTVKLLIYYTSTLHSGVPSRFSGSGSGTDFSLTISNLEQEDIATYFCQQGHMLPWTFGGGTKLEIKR
Found: 4.4e-07
